Target: T1, human PD-L1 (CD274), full-length, expressed on the surface of CHO cells (human, UniProt Q9NZQ7 19-290)
T1 construct: also called huPD-L1; B7-H1
T1 sequence (Q9NZQ7 19-290): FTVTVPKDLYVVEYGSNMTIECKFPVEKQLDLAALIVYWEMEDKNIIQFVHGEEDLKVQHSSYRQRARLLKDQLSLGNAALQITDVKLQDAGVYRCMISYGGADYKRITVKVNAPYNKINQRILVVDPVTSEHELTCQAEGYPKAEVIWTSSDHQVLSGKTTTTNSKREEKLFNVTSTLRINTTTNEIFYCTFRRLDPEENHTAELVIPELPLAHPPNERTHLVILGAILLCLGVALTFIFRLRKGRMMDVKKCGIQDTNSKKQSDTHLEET
Assay: flow cytometry, CHO cells stably expressing human PD-L1, 33.3 nM Fc fusion, PE anti-human Fc
readout_label: MFI at 33.3 nM (MFI)
Only the number, expressed in MFI, is required.

binder: variant CD80 IgV-Fc E35D/M47V/T62A/A71G/V83A/Y87H/L97M (Fc fusion, not shown: a dimerising Fc or GST) VIHVTKEVKEVATLSCGHNVSVEELAQTRIYWQKDKKMVLTMMSGDVNIWPEYKNRTIFDIANNLSIVILGLRPSDEGTYECAVLKHEKDAFKREHMAEVTLSVKAD
MFI at 33.3 nM [MFI]: 77500
//
binder: variant CD80 IgV-Fc E35D/M47V/A71G/L85M/L97Q (Fc fusion, not shown: a dimerising Fc or GST) VIHVTKEVKEVATLSCGHNVSVEELAQTRIYWQKDKKMVLTMMSGDVNIWPEYKNRTIFDITNNLSIVILGLRPSDEGTYECVVMKYEKDAFKREHQAEVTLSVKAD
MFI at 33.3 nM [MFI]: 61700
//
binder: variant CD80 IgV-Fc H18Y/Y31H/E35D/M47V/A71G/L85Q (Fc fusion, not shown: a dimerising Fc or GST) VIHVTKEVKEVATLSCGYNVSVEELAQTRIHWQKDKKMVLTMMSGDVNIWPEYKNRTIFDITNNLSIVILGLRPSDEGTYECVVQKYEKDAFKREHLAEVTLSVKAD
MFI at 33.3 nM [MFI]: 76400

Task: Entry under review: variant CD80 IgV-Fc Q33L/E35D/M47L/A71G/F92S (Fc fusion, not shown: a dimerising Fc or GST) VIHVTKEVKEVATLSCGHNVSVEELAQTRIYWLKDKKMVLTMMSGDLNIWPEYKNRTIFDITNNLSIVILGLRPSDEGTYECVVLKYEKDASKREHLAEVTLSVKAD . Reported MFI at 33.3 nM?
Output: 28000
